- Procedure text: qHTS Assay for Modulators of miRNAs and/or Inhibitors of miR-21; further: potency means the concentration at half of the fitted maximal effect; nearly all actives have a fitted effect of over 55% in size
- Conditions used: HeLa miR-21-FLuc reporter, luciferase luminescence, 48 h; actives lower the signal
Among all 340,000 compounds or so, about 3,300 (0.97%) were called active. About 9% were inconclusive and are not listed. The list shows a part of the results.

Molecule	Potency
Cc1nc(Cl)cc(N/N=C/c2ccc(O)cc2)n1	18.5 µM (active)
CC(=O)Cn1cnc2sc(-c3ccccc3)cc2c1=O	4.14 µM (active)
C/C(=N/NC(=O)c1ccoc1C)C12CC3CC(CC(C3)C1)C2	8.26 µM (active)
Cc1ccc(N/C=C/c2onc(C)c2[N+](=O)[O-])cc1	0.185 µM (active)
Cc1nn(-c2cccc(C(F)(F)F)c2)c(Cl)c1/C=N/Nc1cccc(C(=O)O)c1	0.104 µM (active)
Cc1ccccc1OCC(O)Cn1nnc2ccccc21 (configuration not stated)	7.36 µM (active)
COc1ccnc(Oc2ccc3ccccc3c2)c1C#N	2.93 µM (active)
CC(CC(=O)c1cccs1)CC(=O)c1cccs1	11.7 µM (active)
Cc1ccc(C(=O)Cn2nnc3ccccc32)cc1C	1.31 µM (active)
N/C(=N\N=C\c1ccc(O)c(O)c1)c1nonc1N	8.26 µM (active)
O=C(c1cnn(-c2cccc(F)c2)c1)c1ccccc1O	3.69 µM (active)
COCC1CCN(C(=O)c2cc(COc3cc(C)c(Cl)c(C)c3)on2)C1 (configuration not stated)	13.1 µM (active)
Cc1occc1C(=O)NN=C1C2CC3CC(C2)CC1C3	1.31 µM (active)
COc1ccc(/C=C/c2nc(-c3ccccc3O)n[nH]2)cc1	2.33 µM (active)
COc1ccc(/C=C/c2nc(-c3ccccc3O)n[nH]2)cc1OC	4.65 µM (active)
C=C(C)C1CC=C(C)/C(=N/NC(=O)c2ccoc2C)C1 (configuration not stated)	4.65 µM (active)
Cc1cc(OCc2cc(C(=O)N3CCCCCC3)no2)cc(C)c1Cl	5.85 µM (active)
CCCCn1cnc2sc(-c3ccccc3)cc2c1=O	1.31 µM (active)
Cc1nn(Cc2ccccc2)c(Cl)c1C(=O)NCCc1ccccc1	2.33 µM (active)
COc1ccccc1CC(=O)NCc1csc(-c2cccs2)n1	6.56 µM (active)
Cc1cc(O)ccc1N/C=C/c1onc(C)c1[N+](=O)[O-]	1.04 µM (active)
CCOC(=O)c1c(C)c(C(=O)NCCc2ccccc2)c(C)n1C	11.7 µM (active)
